assay: Components of the Cytosolic LPS Sensing Pathway: Gene Identification via Genome-wide siRNA Screen; settings: RAW264.7 macrophages, IL-1a HTRF, actives lie on both sides, screened at 100 nM (by protocol), cells primed 5 h with Pam3CSK4 first;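 also: robust z of the log signal after scaling to non-targeting control siRNA wells of the plate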
The campaign covered roughly 53,000 sequences. About 3,700 (7%) were called active. Shown is part of a subset that was picked to be rich in actives.
# z-score listing for each entry below
measurement name: z-score

[[record]]
query_sequence = "GCAGCUCUGCGGAAGCUUUTT against Olfr1350"
result_number = -0.505

[[record]]
query_sequence = "GCUACUAAAUUCUGUUUUGTT against Nol4l"
result_number = 0.325

[[record]]
query_sequence = "GCCCACGUACAGAAAACAGTT against Aox2"
result_number = -1.72

[[record]]
query_sequence = "GGCAGCAGGAUGCAGAAAUTT against Ngef"
result_number = -2.43

[[record]]
query_sequence = "GCAUCCUGGCUUAUCCAUUTT against Hmgb1"
result_number = -0.393

[[record]]
query_sequence = "GGACAGUUUACUCCAGAUATT against Foxc1"
result_number = 2.84

[[record]]
query_sequence = "AACACUGGGUACAUCUACATT against H2-Q7"
result_number = 1.75

[[record]]
query_sequence = "GGUUGGAGUUAUAGAUUUUTT against Rufy3"
result_number = 1.42

[[record]]
query_sequence = "GCCCGACCUGUUGAGAAGATT against Znhit3"
result_number = 1.43

[[record]]
query_sequence = "CCAUACAAUAAGAGUGCUATT against Clec4a4"
result_number = 0.936

[[record]]
query_sequence = "GGAACCCUUUUCAAAAGAGTT against Bclaf3"
result_number = 0.112

[[record]]
query_sequence = "GGCUCCUCUCCAAGAAUAUTT against Prr14l"
result_number = 2.03

[[record]]
query_sequence = "GGCUCUGGGUGGUAUUCAUTT against Slc5a2"
result_number = -0.637

[[record]]
query_sequence = "GGAGCUGAUGACUUCAGGCTT against Mmp19"
result_number = 1.17

[[record]]
query_sequence = "GAAAGUUUACGGGAAAUCUTT against Klf13"
result_number = 2.04

[[record]]
query_sequence = "GGUAAAUGACAACUUUCUUTT against Slco6b1"
result_number = 2.92

[[record]]
query_sequence = "CCUGCUUAUUUAUGUACGATT against Tob2"
result_number = 1.27

[[record]]
query_sequence = "GCACUUUGUGCUAUAUAAGTT against Mapk14"
result_number = 0.616

[[record]]
query_sequence = "GGAUUUUCGAUUCUCUUACTT against Glg1"
result_number = 2.25

[[record]]
query_sequence = "GGACAUGGAACUGGAUGAATT against Ciita"
result_number = -2.49

[[record]]
query_sequence = "CCAAGCUAGUCCUCAAGCUTT against Snapc2"
result_number = -1.16

[[record]]
query_sequence = "GGUUGUCUUGACACCCUACTT against Tnfrsf1b"
result_number = -2.21

[[record]]
query_sequence = "UUAAGGAAAUGUUCUGUUCTT against Olfr426"
result_number = 0.797

[[record]]
query_sequence = "GGCCAUUAACAGCAGUCUGTT against Kifc5b"
result_number = -1.71

[[record]]
query_sequence = "GGAGUGUUUUGCAGUUUUATT against Dcstamp"
result_number = 4.39


---

assay: Components of the Cytosolic LPS Sensing Pathway: Gene Identification via Genome-wide siRNA Screen; details: RAW264.7 macrophages, IL-1a HTRF, actives lie on both sides, screened at 100 nM (by protocol), cells primed 5 h with Pam3CSK4 first;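 also: robust z of the log signal after scaling to non-targeting control siRNA wells of the plate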
Out of some 53,000 sequences screened, about 3,700 (7%) were called active.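 Rule for the calls: active = gene knockdowns whose robust z-score for IL-1 alpha signal is at least 2 or at most -2, so actives lie on both sides; inactive = the rest.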 The full list was thinned out, with actives kept by preference.
Outcomes: active, inactive

[[record]]
query_sequence = "CGGCCUUCAUCUGCCUUUUTT against Olfr1222"
assigned_category = "inactive"

[[record]]
query_sequence = "GCCACAACAACUUGAGCAGTT against Amigo1"
assigned_category = "active"

[[record]]
query_sequence = "GGAAAAGGCCAUGAAUAUATT against Mmel1"
assigned_category = "inactive"

[[record]]
query_sequence = "GCAGAUCUUGUGAUUAAUGTT against Ildr1"
assigned_category = "inactive"

[[record]]
query_sequence = "GGACUAUGUGGCCCAGUGUTT against Nat8f5"
assigned_category = "inactive"

[[record]]
query_sequence = "GGUGGAACUCGUCAAUAGCTT against Vat1"
assigned_category = "inactive"

[[record]]
query_sequence = "GGAGAUCUUGAGAUUGUAUTT against Ticrr"
assigned_category = "inactive"

[[record]]
query_sequence = "CGAAAUGAAAACUUCCUGGTT against Mab21l1"
assigned_category = "inactive"

[[record]]
query_sequence = "GCUGAAUGGAAGGAAGUUGTT against Wdr83os"
assigned_category = "inactive"

[[record]]
query_sequence = "GGAAUAAGGCGAGUUGGAATT against Serbp1"
assigned_category = "inactive"

[[record]]
query_sequence = "CCCAAAUACCUACCAUCUCTT against Slc4a9"
assigned_category = "inactive"

[[record]]
query_sequence = "GGCACAGAAUAUCCACCACTT against Olfr283"
assigned_category = "inactive"

[[record]]
query_sequence = "CCCUACUCCUCAGAACUUATT against Tbc1d10a"
assigned_category = "inactive"

[[record]]
query_sequence = "CGAUAAAAGACCCAAAUUATT against Emx2"
assigned_category = "inactive"

[[record]]
query_sequence = "GGACUACCGAACAAGAGAATT against Zfp318"
assigned_category = "inactive"

[[record]]
query_sequence = "GGAGUUGAGCAAGACCAAGTT against Ccdc102a"
assigned_category = "inactive"

[[record]]
query_sequence = "GGAGUCCUUUCGUUCUAUCTT against Rab2a"
assigned_category = "inactive"

[[record]]
query_sequence = "GGGCCAAUAGGAGUUCUUUTT against Tcf20"
assigned_category = "inactive"

[[record]]
query_sequence = "GGGACGGAGAAAAGCUUUUTT against Olfr419"
assigned_category = "active"

[[record]]
query_sequence = "CGGGAUCUAUCCACUGAUGTT against Nrbp2"
assigned_category = "inactive"

[[record]]
query_sequence = "GGUGGAAAAUGGUUGGUUUTT against Mfap3"
assigned_category = "inactive"

[[record]]
query_sequence = "GGAUUCAAGCAUCGGAUUGTT against Adamts6"
assigned_category = "inactive"

[[record]]
query_sequence = "GCAGCAAUCAGAUCAUGUATT against Platr26"
assigned_category = "inactive"

[[record]]
query_sequence = "GCAGAUGCUAACAUAUCCATT against Trim32"
assigned_category = "inactive"

[[record]]
query_sequence = "GGAUAACAGCAAGCUGGCGTT against Taldo1"
assigned_category = "inactive"


---

assay: Components of the Cytosolic LPS Sensing Pathway: Gene Identification via Genome-wide siRNA Screen; settings: RAW264.7 macrophages, IL-1a HTRF, actives lie on both sides, screened at 100 nM (by protocol), cells primed 5 h with Pam3CSK4 first;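 also: robust z of the log signal after scaling to non-targeting control siRNA wells of the plate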
Among all 53,000 sequences or so, about 3,700 (7%) were called active. This is one part of a sample in which actives are shown more often than they occur.
# 1 (yes) = z-score below 0.1 (exclusive); 0 (no) = z-score at/above 0.1

[[record]]
query_sequence = "CGACAGAGUGAAAAUUAAGTT against Setd3"
assigned_category = "1 (yes)"

[[record]]
query_sequence = "GGAAGACAACAACCUAGAATT against Rpn1"
assigned_category = "1 (yes)"

[[record]]
query_sequence = "GCGGGACUUUAUCUCAUCCTT against Mfsd4b1"
assigned_category = "1 (yes)"

[[record]]
query_sequence = "GGGCAACAAGGAGUACUCATT against Prss45"
assigned_category = "1 (yes)"

[[record]]
query_sequence = "GGUCUGCUUUGUCUUGGUGTT against Olfr829"
assigned_category = "0 (no)"

[[record]]
query_sequence = "GGAGGUAUGGCGGUGAUUATT against Krt77"
assigned_category = "0 (no)"

[[record]]
query_sequence = "GGCUAUGCAUCUCCUGUCATT against Gata4"
assigned_category = "1 (yes)"

[[record]]
query_sequence = "CGGAAGAACUACAAGUCGATT against Sipa1l3"
assigned_category = "0 (no)"

[[record]]
query_sequence = "CGAACUGAAGGUUUUCAAUTT against Knstrn"
assigned_category = "0 (no)"

[[record]]
query_sequence = "GGUUUUGUACUUUCAUAGATT against Fam111a"
assigned_category = "0 (no)"

[[record]]
query_sequence = "AUGGAAUCCAGUAUAGAGCTT against Cep44"
assigned_category = "0 (no)"

[[record]]
query_sequence = "GGUUUAUGGGACAGUUUUUTT against Plk2"
assigned_category = "0 (no)"


---

experiment: Components of the Cytosolic LPS Sensing Pathway: Gene Identification via Genome-wide siRNA Screen; conditions: RAW264.7 macrophages, IL-1a HTRF, actives lie on both sides, screened at 100 nM (by protocol), cells primed 5 h with Pam3CSK4 first;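 also: robust z of the log signal after scaling to non-targeting control siRNA wells of the plate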
Out of some 53,000 sequences screened, about 3,700 (7%) were called active. The sample as a whole holds a higher share of actives than the screen did.
measurement name: z-score

[[record]]
query_sequence = "GGGUGUGCUUCAUAUCAAATT against 2210407C18Rik"
measurement_name = "z-score"
result_number = 0.812

[[record]]
query_sequence = "GCUCGAGAAGAGUUUGUUATT against 1700030J22Rik"
measurement_name = "z-score"
result_number = 0.933

[[record]]
query_sequence = "GCCCAAUCAAAAAAUGGUGTT against Zyx"
measurement_name = "z-score"
result_number = -0.0505

[[record]]
query_sequence = "GCCUUAACCACAAUUAAAATT against Etfrf1"
measurement_name = "z-score"
result_number = -0.578

[[record]]
query_sequence = "GAGAAGAAAAAAUGCAGUGTT against Olfr825"
measurement_name = "z-score"
result_number = 0.0375

[[record]]
query_sequence = "GUUCUAGGCCUCCUGAAGCTT against Dohh"
measurement_name = "z-score"
result_number = -0.808

[[record]]
query_sequence = "GGGCAAUGAAUGACAUUGGTT against Gabrd"
measurement_name = "z-score"
result_number = -0.368

[[record]]
query_sequence = "GGACAUCGGCUACAACACCTT against Fzd10"
measurement_name = "z-score"
result_number = -2.08

[[record]]
query_sequence = "GGAGGUUUUUUUGUUUUGUTT against Serpinb13"
measurement_name = "z-score"
result_number = -0.614

[[record]]
query_sequence = "GGGUUGUUUGUCUUGUUCGTT against Rspo2"
measurement_name = "z-score"
result_number = 0.847

[[record]]
query_sequence = "GGAAACUUUUGGAAGACUATT against Jmjd6"
measurement_name = "z-score"
result_number = 2.02

[[record]]
query_sequence = "GGCUGCACAAAACGAGAUCTT against Tcirg1"
measurement_name = "z-score"
result_number = -0.0738


Ref: PubChem BioAssay AID1508600
